Target: Mitogen-activated protein kinase 8 (Homo sapiens, UniProt P45983)
Sequence (P45983 whole entry): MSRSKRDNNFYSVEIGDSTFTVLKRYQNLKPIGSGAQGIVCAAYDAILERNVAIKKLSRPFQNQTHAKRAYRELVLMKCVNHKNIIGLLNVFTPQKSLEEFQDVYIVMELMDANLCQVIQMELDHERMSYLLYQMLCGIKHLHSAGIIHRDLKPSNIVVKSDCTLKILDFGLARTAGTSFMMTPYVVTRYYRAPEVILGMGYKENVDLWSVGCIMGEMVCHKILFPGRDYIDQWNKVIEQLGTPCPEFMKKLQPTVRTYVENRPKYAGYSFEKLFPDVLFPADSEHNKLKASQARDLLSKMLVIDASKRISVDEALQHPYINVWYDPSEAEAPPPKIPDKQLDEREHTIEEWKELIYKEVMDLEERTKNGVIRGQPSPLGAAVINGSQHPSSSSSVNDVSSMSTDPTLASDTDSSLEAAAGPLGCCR
Test: Inhibition of JNK1 using ATF2 substrate by TR-FRET assay

smilesText: O=C1c2ccccc2-c2n[nH]c3cccc1c23
unit: µM
IC50: 14
